assay: Curcumin oil-solubility in bulk corn oil by turbidity (Example 3); format: physicochemical; conditions: bulk corn oil, oil or lipid, thermodynamic from solid; ambient temperature; estimated from turbidity at 3 and 4 mg/mL
Quantity Name: solubility

INPUT: For COc1cc(/C=C/C(=O)CC(=O)/C=C/c2ccc(O)c(OC)c2)ccc1O [curcumin] , what is its reported solubility?
OUTPUT: 3000 to 4000 µg/mL
